System: Candida albicans
Experiment: Antifungal activity against Candida albicans ATCC 10231 at 400 ug/ml after 24 hr by cup-plate agar method
Format: functional
Details: ATCC 10231, 24 h, read-out: IZ
QUANTITY_KIND: zone of inhibition at 400 µg/mL (mm)
Return type: number; implicit unit mm.

{"SMILES_STRING": "O=C(/C=C/c1ccc([N+](=O)[O-])cc1)c1ccc(C(=O)/C=C/c2ccc([N+](=O)[O-])cc2)cc1", "QUANTITY_KIND": "zone of inhibition at 400 µg/mL", "UNIT_TAG": "mm", "VALUE_REPORTED": 25}

Indicate the recorded zone of inhibition at 400 µg/mL value for this compound: `O=C(/C=C/c1ccccc1Cl)c1ccc(C(=O)/C=C/c2ccccc2Cl)cc1`
12

Indicate the recorded zone of inhibition at 400 µg/mL value for this compound: `O=C(/C=C/c1ccc(Cl)cc1)c1ccc(C(=O)/C=C/c2ccc(Cl)cc2)cc1`
12

Indicate the recorded zone of inhibition at 400 µg/mL value for this compound: `O=C(/C=C/c1ccccc1)c1ccc(C(=O)/C=C/c2ccccc2)cc1`
17

Indicate the recorded zone of inhibition at 400 µg/mL value for this compound: `COc1ccccc1/C=C/C(=O)c1ccc(C(=O)/C=C/c2ccccc2OC)cc1`
9

Indicate the recorded zone of inhibition at 400 µg/mL value for this compound: `O=C(/C=C/c1ccccc1[N+](=O)[O-])c1ccc(C(=O)/C=C/c2ccccc2[N+](=O)[O-])cc1`
15
